Test system: RS4;11 cells
ASSAY SUMMARY: RS4;11 cell viability, CCK-8 assay
Format: cell-based
SETUP CONDITIONS: Homo sapiens, RS4-11, 96 h, CCK-8, 4 days, read-out: RS4, 11 IC50 (Bcl-2 dependent)
PROPERTY: pIC50
Here pIC50 is given on a logarithmic scale as minus log10 of the concentration in mol/L.

Exercise: // fetch pIC50 for O=C(NS(=O)(=O)c1ccc(NCC2CCOCC2)c([N+](=O)[O-])c1)c1ccc(N2CCN(CC3=C(c4ccc(Cl)cc4)CC4(CC3)COC4)CC2)cc1Oc1cnc2[nH]ccc2c1 [Cpd. No. 2] ; system: RS4;11 cells
Solution: 8.26

Exercise: For RS4;11 cells, give the measured pIC50 of the entry O=C(NS(=O)(=O)c1ccc(NC[C@@H]2COCCO2)c([N+](=O)[O-])c1)c1ccc(C2=CCN(CC3=C(c4ccc(Cl)cc4)CC4(CC3)COC4)CC2)cc1Oc1cnc2[nH]ccc2c1 [Cpd. No. 5]
Solution: 7.66

Exercise: Fill in: pIC50 on RS4;11 cells, entry O=C(NS(=O)(=O)c1cc(F)c(NC[C@H]2COCCO2)c([N+](=O)[O-])c1)c1ccc(N2CCN(CC3=C(c4ccc(Cl)cc4)CC4(CCC4)CC3)CC2)cc1Oc1cnc2[nH]ccc2c1 [Cpd. No. 40]
Solution: 8.85
